Hello, the source for this data is PubChem BioAssay, in case you need it.

Kindly supply the reported z-score values for the records listed here.
Assay: inhibitors of hydroxyurea-induced Chk1 phosphorylation, primary screen, imaging, HeLa, phospho-Chk1 antibody, percent positive cells (AID 1186)
Settings: hydroxyurea-induced phospho-Chk1 immunofluorescence imaging, higher = more signal
Active and inactive are the calls of the source. How the calls were made is not given here.

Guide cases for z-score, answers given:
Data request: Look up z-score for this molecule: COc1cc(C(O)C2C=CC3C(=O)N(c4ccccc4)C(=O)C3N2Nc2ccc(C#N)cc2)cc(OC)c1OC (centres undefined)
Data returned: 0.859 (inactive)

Data request: Thanks! And C=CCC(OC(C)=O)[C@@H]1[C@@H](N(Cc2ccc(-c3ccccc3)cc2)C(=O)Cc2ccc(OC)cc2)c2cc(OCCCO)ccc2N1C(=O)c1ccc2ccccc2n1 (some centres undefined) ?
Data returned: -0.0117 (inactive)

Data request: And what about the molecule CCCC[C@@H]1C[C@H]1[C@@H](NC(=O)c1ccc(-c2ccccc2)cc1)c1ccc(-c2ccccc2)cc1 ?
Data returned: 0.558 (inactive)

---
Data request: For the molecule O=C1N(CCS(=O)(=O)c2ccccc2)Cc2ccccc2C[C@]12N=C(c1ccc(OCCCO)cc1)O[C@@H]2c1ccccc1 , what z-score is on record?
Data returned: -0.719 (inactive)

###

Would you mind telling me the reported z-score of each entry?
Assay: PSAC antagonists in infected red cells, primary screen, cell-based, P. falciparum Indochina, OD700, 1 h (AID 1154)
Details: P. falciparum Indochina infected RBC osmotic lysis, higher = more signal, called active from +8 up or from −8 down
Numbers only.

Data request: Name the reported z-score value associated with the compound COc1ccc([Si](C)(C)[C@H]2[C@H](CCn3cc([C@H](O)c4ccccc4)nn3)O[C@@]3(C(=O)N(Cc4cccc(N5CCC5=O)c4)c4ccccc43)[C@@H]2C)cc1
Data returned: 9.44

Data request: Can you check C[C@H]1NC(=O)[C@H](Cc2ccccc2)NC(=O)[C@@]23C(=O)N[C@@H](Cc4ccccc4)C2[C@H](C)[C@@]2(C)O[C@H]2C3/C=C/C/C=C\CNC1=O (stereo partly specified) next?
Data returned: 2.27

Data request: How about this compound: COCC(=C=CC[C@@H](O)c1ccc(CO)o1)CCO
Data returned: 1.6

Data request: Field entry: COc1ccc(C#Cc2ccc3c(c2)[C@]2(C(=O)N3)[C@H](C(=O)NC[C@H](O)c3ccccc3)[C@H]3C(=O)O[C@H](c4ccccc4)[C@H](c4ccccc4)N3[C@@H]2c2ccccc2OCCO)cc1
Data returned: 1.78

Data request: Field entry: [N-]=[N+]=Nc1ccccc1[C@H]1OC(c2ccc(OCCCO)cc2)=N[C@@]1(CCS(=O)(=O)c1ccccc1)C(=O)O
Data returned: 31.2

Turning now to a further record.
Data request: Entry COCCOC(=O)N1C(=O)[C@@]2(c3cc(C#CCNC(N)=O)ccc31)[C@H](c1ccc(OCCO)cc1)N1[C@H](c3ccccc3)[C@H](c3ccccc3)OC(=O)[C@H]1[C@@H]2C(=O)N1CCc2cc(OC)c(OC)cc2C1 has what z-score?
Data returned: 3.71

###

System: Inhibin beta A chain (activin A)
Assay: INHBA (activin A) binders on microarrays, primary screen, biochemical, small-molecule microarray, 635 nm fluorescence scan (AID 1107);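 further: mouse activin A protein probed at 4.33 µg/mL on printed slides; score merges bound-protein fluorescence near 667 nm with spot signal-to-noise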
Details: small-molecule microarray binding, higher = more signal
Exercise: for every item that follows, state its recorded composite z-score.
Give bare numbers.

Data request: Which composite z-score is reported with Inhibin beta A chain (activin A) for this entry: CC(C)(C)OC(=O)CC[C@@]1(C(=O)NCCN2CCOCC2)N=C(c2ccc(OCCCO)cc2)O[C@@H]1c1ccccc1 ?
Data returned: 0.767

For each of the compounds below, state composite z-score.
1. COc1cc(CO)ccc1OC(C)=O
2. O=C(CS)NCCCCCCNC(=O)[C@H]1C[C@H]2C(=O)N3CCC[C@H]3C(=O)N2[C@H]1c1cccc(OCCO)c1

Data returned:
1. 0.167
2. 0.683

# per-item lookup of composite z-score; items listed below
1. O=C1C[C@@](C(=O)NC2CC2)(c2ccc([N+](=O)[O-])cc2)[C@@H](c2ccc(CO)cc2)N1CC12CC3CC(CC(C3)C1)C2
2. CCOC(=O)C[C@H]1[C@H](OC(=O)Cc2ccc3c(c2)OCO3)[C@@H](NC(=O)C2CCCCC2)c2cc(OCCCO)ccc2N1C(=O)Cc1ccc(OC)cc1
3. O=C1c2ccccc2[C@@]2(Cc3ccccc3N(Cc3ccccc3)C2=O)[C@H](c2ccc(CO)cc2)N1C1CCCCC1
4. COCCOC(=O)N1C(=O)[C@@]2(c3ccccc31)[C@H](C(=O)NC[C@H](O)c1ccccc1)[C@H]1C(=O)O[C@H](c3ccccc3)[C@H](c3ccccc3)N1[C@@H]2c1ccc(OCCO)cc1
5. CC(C)C[C@@H]1NC(=O)[C@@H]2C[C@H](C(=O)NCCCCCC[N+](C)(C)C)[C@H](c3ccc(O)cc3)N2C1=O

Data returned:
1: 0.571; 2: 0.561; 3: 0.784; 4: 0.955; 5: 0.987

Please supply composite z-score for each of the following items, keeping them in order.
1. O=C1OCCC=C[C@H]2OC34C=CCN(c5ccc6ccccc6c5)C(=O)[C@H]3N(CCCCCO)C(=O)[C@@H]4C12 (some centres undefined)
2. CCOC(=O)C1=C[C@@H](CC)N(S(=O)(=O)c2ccc(C)cc2)[C@H]1c1ccccc1
3. COc1ccc([Si](C)(C)[C@@H]2[C@@H](CC(=O)N3CCC[C@H]3CO)O[C@]3(C(=O)N(C)c4c(Br)cc(C)cc43)[C@H]2C)cc1
4. O=C(O)[C@@]1(Cc2ccccc2)N=C(c2ccc(OCCCO)cc2)O[C@H]1c1ccccc1
5. Cc1ccccc1C(O)C1C=CC2C(=O)N(C)C(=O)C2N1Nc1ccccc1 (centres undefined)
6. CC(C)CNC(=O)[C@@]1(c2ccc([N+](=O)[O-])cc2)CC(=O)N(CC23CC4CC(CC(C4)C2)C3)[C@@H]1c1ccc(CO)cc1

Data returned:
1. 0.218
2. 0.538
3. 0.809
4. 0.779
5. 1.16
6. 0.328

Respectfully, I request composite z-score for each entry included below.
1. CCOC(=O)C1=CC[C@@H](c2ccccc2)N(S(=O)(=O)c2ccc(C)cc2)[C@H]1C(=O)OCC
2. O=C1C=CC(=O)[C@@H]2CC(COc3ccccc3)=C3[C@@H](CCc4ccccc4)OB(O)C[C@@H]3[C@H]12

Data returned:
1.04
0.72
